# target.or.test.system: PDEδ farnesyl pocket (Homo sapiens)
# Sequence (O43924 whole entry): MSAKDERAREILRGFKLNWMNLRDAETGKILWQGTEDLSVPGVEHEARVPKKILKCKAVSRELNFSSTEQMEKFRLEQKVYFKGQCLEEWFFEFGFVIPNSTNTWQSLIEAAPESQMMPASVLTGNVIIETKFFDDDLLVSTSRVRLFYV
# assay.notes: Displacement titrations of labeled probe (fluorescence polarization) for the determination of KD values
# Type: binding
# recorded.conditions: Kd for the PDEδ farnesyl pocket; read-out: KD
measurement.label: Kd

compound | reported.value
CCN(CCCNC(=O)C1CCN(c2nc3ccccc3n2Cc2ccc(C)cc2)CC1)c1cccc(C)c1 | > 1000 nM
COc1cccc(CNC(=O)C2CCN(c3nc4ccccc4n3Cc3ccccc3C)CC2)c1 | 100 to 1000 nM
COc1ccccc1OCc1nc2ccccc2n1Cc1ccccc1Cl | 100 to 1000 nM
CCC(CC)c1nc2ccccc2n1Cc1ccccc1 | > 1000 nM
C=CCOc1ccc(-c2nc3ccccc3n2Cc2ccccc2C)cc1 | > 1000 nM
Oc1ccc(-c2nc3ccccc3n2Cc2ccccc2)cc1 | 25 to 100 nM
Cc1cccc(-c2nc3ccccc3n2CCc2ccccc2)c1 | > 1000 nM
Oc1ccc(-c2nc3ccccc3n2Cc2ccc(F)cc2)cc1 | 100 to 1000 nM
O=C(NCCO)C(c1ccccc1)n1c(-c2ccccc2)nc2ccccc21 (stereo not drawn) | > 1000 nM
